// data source = ChEMBL document CHEMBL1154913

# Test system: Candida albicans
# Assay Info: Antifungal activity against Candida albicans clinical isolate after 48 hrs by serial dilution technique
# Format: functional
MIC overview
Quick reminder: number only, in µg/mL, skip the unit.

These recorded examples may help you get a feel for the data.
Compound: C=C1C(=O)O[C@H]2C[C@@]3(C)[C@H](O)CCC(=C)[C@@H]3[C@@H](O)[C@H]12
Quantitative Readout: 25

Compound: C=C1C(=O)O[C@H]2CC(=C)[C@@H](O)CC/C(C)=C/[C@@H](O)[C@H]12 [TATRIDIN B]
Quantitative Readout: 25

Compound: c1ccc(-c2ccc(C(c3ccccc3)n3ccnc3)cc2)cc1 (centres undefined) [BIFONAZOLE]
Quantitative Readout: 200

Proceed to the following item.
Task: Name the reported MIC value associated with the compound C=C1C(=O)O[C@H]2/C=C(\C)[C@@H](O)CC/C(C)=C/[C@@H](O)[C@H]12 [TATRIDIN A]
Result: 25

* * *

# System: Micrococcus luteus
# Assay Info: Antibacterial activity against Sarcina lutea ATCC 9341 after 48 hrs by serial dilution technique
# Assay type: functional
# Measurement Context: ATCC 9341, 48 h
Recorded Metric: MIC (µg/mL)
Numbers only here, please. The scale is µg/mL.

Example cases with answers are listed next.
Chem Smiles: C=C1C(=O)O[C@H]2/C=C(\C)[C@@H](O)CC/C(C)=C/[C@@H](O)[C@H]12
MIC (µg/mL): 6.25
--
Chem Smiles: C=C1C(=O)O[C@H]2CC(=C)[C@@H](O)CC/C(C)=C/[C@@H](O)[C@H]12
MIC (µg/mL): 6.25

Task: Consider the molecule CN[C@@H]1[C@H](O[C@H]2[C@H](O[C@H]3[C@H](O)[C@@H](O)[C@H](N=C(N)N)[C@@H](O)[C@@H]3N=C(N)N)O[C@@H](C)[C@]2(O)C=O)O[C@@H](CO)[C@H](O)[C@H]1O and give its measured MIC.
Result: 50

Task: Would you kindly repeat that for C=C1C(=O)O[C@H]2C[C@@]3(C)[C@H](O)CCC(=C)[C@@H]3[C@@H](O)[C@H]12 ?
Result: 6.25

Task: How about this molecule: C=C1C(=O)O[C@H]2/C=C(\C)[C@@H](O)CC[C@@]3(C)O[C@@H]3[C@H](O)[C@H]12
Result: 6.25

Task: And what about the molecule C=C1C(=O)O[C@H]2C[C@@]3(C)[C@H](O)CC[C@@](C)(O)[C@@H]3[C@@H](O)[C@H]12 ?
Result: 6.25

Task: C=C1C[C@@H]2OC(=O)C(=C)[C@H]2[C@@H](O)/C=C(\C)CCC1=O , same question.
Result: 25

* * *

# System: Agrobacterium tumefaciens
# Assay Info: Antibacterial activity against Agrobacterium tumefaciens A 281 after 48 hrs by serial dilution technique
# Assay type: functional
# Measurement Context: A 281, 48 h
Recorded Metric: MIC (µg/mL)
# output: bare number, implied unit µg/mL

Example cases with answers are listed next.
Molecule: C=C1C(=O)O[C@H]2CC(=C)[C@@H](O)CC/C(C)=C/[C@@H](O)[C@H]12 [TATRIDIN B]
Output Unit: µg/mL
MIC: 25
//
Molecule: C=C1C(=O)O[C@H]2C[C@@]3(C)[C@H](O)CCC(=C)[C@@H]3[C@@H](O)[C@H]12
Output Unit: µg/mL
MIC: 25
//
Molecule: C=C1C(=O)O[C@H]2/C=C(\C)[C@@H](O)CC/C(C)=C/[C@@H](O)[C@H]12 [TATRIDIN A]
Output Unit: µg/mL
MIC: 25
//
Molecule: C=C1C(=O)O[C@H]2/C=C(\C)[C@@H](O)CC[C@@]3(C)O[C@@H]3[C@H](O)[C@H]12
Output Unit: µg/mL
MIC: 25
//
Molecule: C=C1C(=O)O[C@H]2C[C@@]3(C)[C@H](O)CC[C@@](C)(O)[C@@H]3[C@@H](O)[C@H]12
Output Unit: µg/mL
MIC: 25

Task: Which value of MIC has been reported for CN[C@@H]1[C@H](O[C@H]2[C@H](O[C@H]3[C@H](O)[C@@H](O)[C@H](N=C(N)N)[C@@H](O)[C@@H]3N=C(N)N)O[C@@H](C)[C@]2(O)C=O)O[C@@H](CO)[C@H](O)[C@H]1O [STREPTOMYCIN] in the records?
Result: 100

* * *

# Tested on: Bacillus cereus
# Assay Info: Antibacterial activity against Bacillus cereus clinical isolate after 48 hrs by serial dilution technique
# Type: functional
Recorded Metric: MIC (µg/mL)
Lab book: enter the figure in µg/mL, no units written.

Known MIC results, listed for orientation:
Chem Smiles: C=C1C(=O)O[C@H]2C[C@@]3(C)[C@H](O)CC[C@@](C)(O)[C@@H]3[C@@H](O)[C@H]12
Quantitative Readout: 12.5
//
Chem Smiles: CN[C@@H]1[C@H](O[C@H]2[C@H](O[C@H]3[C@H](O)[C@@H](O)[C@H](N=C(N)N)[C@@H](O)[C@@H]3N=C(N)N)O[C@@H](C)[C@]2(O)C=O)O[C@@H](CO)[C@H](O)[C@H]1O
Quantitative Readout: 50
//
Chem Smiles: C=C1C(=O)O[C@H]2CC(=C)[C@@H](O)CC/C(C)=C/[C@@H](O)[C@H]12
Quantitative Readout: 6.25

Task: Quick one: MIC of C=C1C(=O)O[C@H]2C[C@@]3(C)[C@H](O)CCC(=C)[C@@H]3[C@@H](O)[C@H]12 ?
Result: 6.25

Task: Cool, now C=C1C(=O)O[C@H]2/C=C(\C)[C@@H](O)CC[C@@]3(C)O[C@@H]3[C@H](O)[C@H]12
Result: 12.5

Task: What about C=C1C[C@@H]2OC(=O)C(=C)[C@H]2[C@@H](O)/C=C(\C)CCC1=O ?
Result: 12.5

Task: One more molecule: C=C1C(=O)O[C@H]2/C=C(\C)[C@@H](O)CC/C(C)=C/[C@@H](O)[C@H]12
Result: 6.25

* * *

# Test system: SF-268
# Assay Info: Cytotoxicity against human SF268 cells after 48 hrs by SRB assay
# Type: functional
# Measurement Context: SF-268, 48 h
This listing pairs molecules with measured GI50.
The reply should contain only the number, in µM.

# example entries with known answers
Chem Smiles: C=C1C(=O)O[C@H]2C[C@]3(C)[C@H](O)CCC(=C)[C@@H]3[C@@H](O)[C@H]12
Tested Target: SF-268
Output Unit: µM
Quantitative Readout: 52.3
//
Chem Smiles: C=C1C(=O)O[C@H]2C[C@@]3(C)[C@H](O)CCC(=C)[C@@H]3[C@@H](O)[C@H]12
Tested Target: SF-268
Output Unit: µM
Quantitative Readout: 42.7
//
Chem Smiles: C=C1C(=O)O[C@H]2C[C@@]3(C)[C@H](O)CC[C@@](C)(O)[C@@H]3[C@@H](O)[C@H]12
Tested Target: SF-268
Output Unit: µM
Quantitative Readout: 40.3

Now for a further molecule.
Task: Form: Entry = C=C1C(=O)O[C@H]2C[C@@]3(C)[C@H](C(=C)CC[C@@H]3O)[C@@H](O)[C@H]12 | System = SF-268 | GI50 = ____
Result: 76

* * *

# Test system: Salmonella enterica
# Assay Info: Antibacterial activity against Salmonella enteritidis ATCC 13076 after 48 hrs by serial dilution technique
# Assay type: functional, Salmonella enterica subsp. enterica serovar Enteritidis
# Measurement Context: ATCC 13076, 48 h
In this section we review reported MIC values for a set of compounds.
All answers are understood in µg/mL, so give the number only.

Worked examples, 3 compounds total:
Chem Smiles: C=C1C(=O)O[C@H]2C[C@@]3(C)[C@H](O)CCC(=C)[C@@H]3[C@@H](O)[C@H]12
MIC (µg/mL): 25
//
Chem Smiles: CN[C@@H]1[C@H](O[C@H]2[C@H](O[C@H]3[C@H](O)[C@@H](O)[C@H](N=C(N)N)[C@@H](O)[C@@H]3N=C(N)N)O[C@@H](C)[C@]2(O)C=O)O[C@@H](CO)[C@H](O)[C@H]1O
MIC (µg/mL): 200
//
Chem Smiles: C=C1C(=O)O[C@H]2/C=C(\C)[C@@H](O)CC/C(C)=C/[C@@H](O)[C@H]12
MIC (µg/mL): 25

Task: What value of measured MIC is listed for C=C1C(=O)O[C@H]2/C=C(\C)[C@@H](O)CC[C@@]3(C)O[C@@H]3[C@H](O)[C@H]12 ?
Result: 25

Task: Lookup C=C1C(=O)O[C@H]2C[C@@]3(C)[C@H](O)CC[C@@](C)(O)[C@@H]3[C@@H](O)[C@H]12
Result: 25

Task: And then C=C1C(=O)O[C@H]2CC(=C)[C@@H](O)CC/C(C)=C/[C@@H](O)[C@H]12 , what is it?
Result: 25

* * *

# Tested on: Escherichia coli
# Assay Info: Antibacterial activity against Escherichia coli ATCC 35218 after 48 hrs by serial dilution technique
# Assay type: functional
# Measurement Context: ATCC 35218, 48 h
Recorded Metric: MIC (µg/mL)
The figure you give is taken to be in µg/mL; do not add the unit.

# count of solved cases: 4
Chem Smiles: C=C1C(=O)O[C@H]2CC(=C)[C@@H](O)CC/C(C)=C/[C@@H](O)[C@H]12
Quantitative Readout: 25
--
Chem Smiles: C=C1C(=O)O[C@H]2C[C@@]3(C)[C@H](O)CC[C@@](C)(O)[C@@H]3[C@@H](O)[C@H]12
Quantitative Readout: 25
--
Chem Smiles: C=C1C(=O)O[C@H]2/C=C(\C)[C@@H](O)CC[C@@]3(C)O[C@@H]3[C@H](O)[C@H]12
Quantitative Readout: 25
--
Chem Smiles: CN[C@@H]1[C@H](O[C@H]2[C@H](O[C@H]3[C@H](O)[C@@H](O)[C@H](N=C(N)N)[C@@H](O)[C@@H]3N=C(N)N)O[C@@H](C)[C@]2(O)C=O)O[C@@H](CO)[C@H](O)[C@H]1O
Quantitative Readout: 100

Task: Which MIC value is on record for C=C1C(=O)O[C@H]2C[C@@]3(C)[C@H](O)CCC(=C)[C@@H]3[C@@H](O)[C@H]12 ?
Result: 25

Task: Same again, this time with C=C1C(=O)O[C@H]2/C=C(\C)[C@@H](O)CC/C(C)=C/[C@@H](O)[C@H]12
Result: 25
